Taken from the supplement of paper PMC6755084.

B1: F1*; the commonest letter at each place (parent)
chain: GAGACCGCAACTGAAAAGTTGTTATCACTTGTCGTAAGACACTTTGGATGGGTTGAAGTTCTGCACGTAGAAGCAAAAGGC

# Variants of: B1
# EXPERIMENT SUMMARY: fraction ligated after 30 min (ligated reads / total reads); higher = more ligase activity
# CONDITION NOTES: with F1*sub RNA substrate (template-directed ligation), 42 °C
REPORTED ENDPOINT: fraction ligated
Reply: number alone, nothing else.

[
  {
    "CHANGES": "C42A A48T",
    "fraction ligated": 0.803
  },
  {
    "CHANGES": "A57G",
    "fraction ligated": 0.822
  },
  {
    "CHANGES": "G34C A36G",
    "fraction ligated": 0.824
  },
  {
    "CHANGES": "G34A A57T",
    "fraction ligated": 0.822
  },
  {
    "CHANGES": "C26A C40T",
    "fraction ligated": 0.814
  }
]

[ask] Look up and state reported fraction ligated for C33G C40A
[reply] 0.819

[ask] Return fraction ligated (reported value) for this variant: T44G A48G
[reply] 0.787

[ask] Return fraction ligated for the following variant: A37G T45A
[reply] 0.804
